Biological target: HLA-A*02:01 (Homo sapiens, UniProt P04439, D140Y/D185E/D98H/E176V/E277Q/G131W/G231S/I119V/I121R/I166T/I218V/L300P/L318F/N151K/N90K/P208A/P217A/Q86G/Q94H/R138H/R169H/T345S)
Assay: MHC binding assay (UV-ligand exchange, ELISA, peptide exchange yield)
Details: binding of HLA-class I restricted peptides to HLA-A*02:01
measurement kind: Peptide exchange (MHC class I binding score, peptide exchange yield)

386 (ILFRYPLTI; listed as Homo sapiens) [compound 386]	″+++″ (≥50% = +++)
464 (ALNDCIYSV; listed as Homo sapiens) [compound 464]	″+++″ (≥50% = +++)
106 (LLYDAVHIVSV; listed as Homo sapiens) [compound 106]	″+++″ (≥50% = +++)
276 (ALFTFSPLTV; listed as Homo sapiens) [compound 276]	″+++″ (≥50% = +++)
342 (HIYDKVMTV; listed as Homo sapiens) [compound 342]	″+++″ (≥50% = +++)

Task: Give Peptide exchange (MHC class I binding score, peptide exchange yield) for the following substance: 266 (KITDTLIHL; listed as Homo sapiens) [compound 266]
Output: ″+++″ (≥50% = +++)

Task: Give Peptide exchange (MHC class I binding score, peptide exchange yield) for the following substance: 176 (YLMEGSYNKVFL; listed as Homo sapiens) [compound 176]
Output: ″++″ (≥20% = ++)

Task: Give Peptide exchange (MHC class I binding score, peptide exchange yield) for the following substance: 548 (ALWENPESGEL; listed as Homo sapiens) [compound 548]
Output: ″++″ (≥20% = ++)

###

Molecular target: HLA-A*02:01 (Homo sapiens, UniProt P04439, D140Y/D185E/D98H/E176V/E277Q/G131W/G231S/I119V/I121R/I166T/I218V/L300P/L318F/N151K/N90K/P208A/P217A/Q86G/Q94H/R138H/R169H/T345S)
Test: MHC binding assay (UV-ligand exchange, ELISA, peptide exchange yield)
Conditions: binding of HLA-class I restricted peptides to HLA-A*02:01
Excerpt: Candidate peptides for T cell based therapies according to the present invention were further tested for their MHC binding capacity (affinity). The individual peptide-MHC complexes were produced by UV-ligand exchange, where a UV-sensitive peptide is cleaved upon UV-irradiation, and exchanged with the peptide of interest as analyzed. Only peptide candidates that can effectively bind and stabilize the peptide-receptive MHC molecules prevent dissociation of the MHC complexes. […]
measurement kind: Peptide exchange (MHC class I binding score, peptide exchange yield)

517 (LLMPIPEGLTL; listed as Homo sapiens) [compound 517]	″+++″ (≥50% = +++)
279 (ALWGGTQPLL; listed as Homo sapiens) [compound 279]	″++″ (≥20% = ++)
549 (AMLENASDIKL; listed as Homo sapiens) [compound 549]	″+++″ (≥50% = +++)
317 (SLAALVVHV; listed as Homo sapiens) [compound 317]	″+++″ (≥50% = +++)
80 (FLYDNLVESL; listed as Homo sapiens) [compound 80]	″++″ (≥20% = ++)
298 (VMITKLVEV; listed as Homo sapiens) [compound 298]	″+++″ (≥50% = +++)
103 (TLAEEVVAL; listed as Homo sapiens) [compound 103]	″+++″ (≥50% = +++)
255 (VLASYNLTV; listed as Homo sapiens) [compound 255]	″+++″ (≥50% = +++)
79 (SLFIGEKAVLL; listed as Homo sapiens) [compound 79]	″+++″ (≥50% = +++)
378 (ALGYFVPYV; listed as Homo sapiens) [compound 378]	″+++″ (≥50% = +++)

Task: Give Peptide exchange (MHC class I binding score, peptide exchange yield) for the following substance: 325 (FIMPATVADATAV; listed as Homo sapiens) [compound 325]
Output: ″+++″ (≥50% = +++)

Task: Give Peptide exchange (MHC class I binding score, peptide exchange yield) for the following substance: 36 (YVLEDLEVTV; listed as Homo sapiens) [compound 36]
Output: ″++″ (≥20% = ++)

Task: Give Peptide exchange (MHC class I binding score, peptide exchange yield) for the following substance: 300 (ALLGQTFSL; listed as Homo sapiens) [compound 300]
Output: ″+++″ (≥50% = +++)

Task: Give Peptide exchange (MHC class I binding score, peptide exchange yield) for the following substance: 608 (SLLSVSHAL; listed as Homo sapiens) [compound 608]
Output: ″+++″ (≥50% = +++)

Task: Give Peptide exchange (MHC class I binding score, peptide exchange yield) for the following substance: 427 (ALLPLSPYL; listed as Homo sapiens) [compound 427]
Output: ″+++″ (≥50% = +++)
